- measurement-notes: Components of the Cytosolic LPS Sensing Pathway: Gene Identification via Genome-wide siRNA Screen;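 also: robust z of the log signal after scaling to non-targeting control siRNA wells of the plate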
- measurement-context: RAW264.7 macrophages, IL-1a HTRF, actives lie on both sides, screened at 100 nM (by protocol), cells primed 5 h with Pam3CSK4 first
In all, about 53,000 sequences went through this assay and about 3,700 (7%) were called active. This excerpt belongs to a sample that is enriched for actives.
Sorting guide: entries reporting z-score beneath -0.9 go in the Condition met pile, the rest go in the Condition not met pile.

>>> df
                      macromolecule_sequence                cat
 0     GCUUUUGAAUGUGUGGACUTT against Ugt2b37      Condition met
 1       GGACACCAUAUGGUUAGCUTT against Tedc1      Condition met
 2       GCACAGAGGAUGUACGUUATT against Cstad  Condition not met
 3       GGACAAAGUUGUUCCUUCUTT against Zfp13      Condition met
 4       GAAGAUUAUCCAUUGCCCGTT against Lce1h  Condition not met
 5     GCUGAAAAUAUACCAUUCATT against Colec10  Condition not met
 6  GGCCCAAGAUUUCAAUUAGTT against 9130230L23Rik  Condition not met
 7     GGUGAACUUCUUUGGUGCATT against Hsd11b2  Condition not met
 8      GGCUGUGCGUGUUACAAAATT against Erlin1  Condition not met
 9      GCUGCAUUACAAGCCCAACTT against Zfp414  Condition not met
10     CGGAAGAUGUUAAAACUAUTT against Slc44a3      Condition met

* * *

# z-score listing for each entry below
- measurement-notes: Components of the Cytosolic LPS Sensing Pathway: Gene Identification via Genome-wide siRNA Screen;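 also: robust z of the log signal after scaling to non-targeting control siRNA wells of the plate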
- measurement-context: RAW264.7 macrophages, IL-1a HTRF, actives lie on both sides, screened at 100 nM (by protocol), cells primed 5 h with Pam3CSK4 first
Out of some 53,000 sequences screened, about 3,700 (7%) were called active. Only a selection was taken, and actives are over-represented in it overall.
assay-endpoint: z-score

                      macromolecule_sequence  observed_value
 0        GGAUGGAGGAAGACUCGAUTT against Etv6            2.14
 1      CCACAUGUCACAUCUUUUCTT against Mrpl47            0.16
 2       GGUAGAUGGCAUCUACUAUTT against Josd2           0.663
 3         CCUGCAUACGAAGUACAUATT against Bsg            2.75
 4       GCCAAAGUGUGUGUUGAAGTT against Gng11          -0.296
 5      GGAACACAUUGGGUAUGCCTT against Sac3d1          -0.575
 6      GGCGUACGUAGACAAGUACTT against Scaf11           -2.23
 7    AAACAGUCAUUUCCUAUAGTT against Olfr1502           -2.04
 8      GGGUUCAAAUAGUUUACCUTT against Tmem33           0.156
 9         GGAUGAUUGCUGACGUGGATT against Bax           0.299
10  GGCAUUAGCUACCUGGACATT against 1700013G24Rik            3.44
11       GCUCUACCCAAUCAAGACCTT against Asb14            0.31

* * *

Reported values of z-score for individual entries
- measurement-notes: Components of the Cytosolic LPS Sensing Pathway: Gene Identification via Genome-wide siRNA Screen;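 also: robust z of the log signal after scaling to non-targeting control siRNA wells of the plate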
- measurement-context: RAW264.7 macrophages, IL-1a HTRF, actives lie on both sides, screened at 100 nM (by protocol), cells primed 5 h with Pam3CSK4 first
- Procedure: Non-canonical inflammasome activation by cytosolic LPS is a critical component of the host response to Gram-negative bacterial infection, however we lack a comprehensive understanding of the cellular processes that control this pathway. […] Lipofectamine RNAiMAX Transfection Reagent ([…]; Invitrogen) was added in […] serum-free, antibiotic-free media to plate wells using a Thermo Scientific Matrix WellMate and Microplate Stacker. […] The plates were read on an EnVision plate reader (PerkinElmer). […]
In all, about 53,000 sequences went through this assay and about 3,700 (7%) were called active. Shown is part of a subset that was picked to be rich in actives.
assay-endpoint: z-score

In [3]: df
Out[3]:
                      macromolecule_sequence  assay_endpoint  observed_value
 0      CCGCAUGAACUUCCUACAGTT against Ugt1a1         z-score             1.2
 1      GCCGAGUCUCAGCUUGUAATT against Dnajc3         z-score           0.258
 2        CCAGAUGGAAAGCGAAAAATT against Thra         z-score           -0.27
 3        CCAACACUAUUACUGUAAATT against Arg2         z-score           0.159
 4     CCAUAUACCCUCGAUGCCATT against Abhd16b         z-score           -2.76
 5       GCAUCGUGCAGAAUUUUGCTT against Ephb1         z-score           -1.04
 6  GGCAGUAUUGACUCCUACCTT against 6430548M08Rik         z-score          -0.973
 7    GCUUCAGCCAUUUCACCUUTT against Rnaseh2c         z-score           0.108
 8       GGAAAAUCUCCGUUGUCUCTT against Acin1         z-score           -2.76
 9     GGAGGAUGCAAUUUUUAACTT against Sult1e1         z-score           0.771
10       GCUAUAGCGCGGAAAUGGATT against Dclk3         z-score          -0.531
11       GGCAACUGAAAUGUUUGUUTT against Rap2c         z-score            2.14
12       CGGACACACAGUUGAUCCGTT against Cct6b         z-score           -2.15
13      GGAGAGAGAUGAAAUUUGATT against Kif26b         z-score            1.79
14     GGAACAAAGAGGUGAUGUUTT against Olfr109         z-score          -0.949
15      GGGCUGUUCUACUUAGUUATT against N6amt1         z-score           0.573
16     GCCACACCAAUAGAAGUGUTT against Csnk1g3         z-score           -2.42
17       GGAAAUUUCAGAGCUCAAGTT against Trpc2         z-score           -2.81
18    GGGUGAAGUAGGUGAAAAATT against H2-M10.6         z-score          -0.361
19        GCUAGGUUGGAUAUAUAUGTT against Mypn         z-score         -0.0247
20      CGUUCAGUGUCUGCAGGUUTT against Mrps12         z-score         -0.0575
21     GGAACUAAAUAUCCCUAUGTT against Polr3gl         z-score           -1.26
22       GGAUGGAGAUUAUGAAGAGTT against Pcsk9         z-score          -0.248
23       GCAUAUGGAUAAGAUUGUUTT against Efr3a         z-score          -0.363
24        CCACUCAAGAUCGAUACCUTT against Fgd1         z-score           0.167

* * *

- measurement-notes: Components of the Cytosolic LPS Sensing Pathway: Gene Identification via Genome-wide siRNA Screen;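 also: robust z of the log signal after scaling to non-targeting control siRNA wells of the plate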
- measurement-context: RAW264.7 macrophages, IL-1a HTRF, actives lie on both sides, screened at 100 nM (by protocol), cells primed 5 h with Pam3CSK4 first
Screen size: about 53,000 sequences; about 3,700 (7%) were called active.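 The calls were made as follows: active = gene knockdowns whose robust z-score for IL-1 alpha signal is at least 2 or at most -2, so actives lie on both sides; inactive = the rest.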 The full list was thinned out, with actives kept by preference.
Classes used: active, inactive

>>> print(df.to_string())
                      macromolecule_sequence       cat
 0  CGCAUCUGUUUCUUUUCCCTT against 1700029P11Rik    active
 1    GCUUAAGAGAUUCAAAUUGTT against Olfr1317  inactive
 2       GGCACACAGUUUUGUACAUTT against Nfat5    active
 3     GGAAAUGCUGCCAUUGUUATT against Aldh3a2  inactive
 4       GGACCUGUGUGCUGAGUUGTT against Matn4  inactive
 5        GGGAUUCAGAGUCAAGAUUTT against Thpo  inactive
 6       GCCACUGGAGUAUAGCCAGTT against Pcnx3  inactive
 7    GCUCCGGAAAGUAAGCAGATT against Tnfrsf26  inactive
 8      GGCAGUAUGAGAGGUAUUUTT against Entpd7  inactive
 9       GGAGAUUUCAUGAACUCUGTT against Srrm3  inactive
10      GGAUAACUGUAACAGCCCGTT against Ly6g6c    active
11        GGAGUUUGAACAUAUGAAGTT against Rcn1  inactive
12     GGCUGUCUUCUGAUCAAUUTT against Adamts3    active
13       GCCACGAUAAUUCAGGAGUTT against Aurkc    active
14       GCCUAUAAGGAAUAACAAGTT against Cerkl  inactive
15      GGUAUUAAGUUCCUGUAAUTT against Ahcyl2  inactive
16        GACCUGAAUAAAGACUGUCTT against Cort  inactive
17        GGUGGUAGAACUGUUAAAATT against Klc2  inactive
18       GCUUUUGCCCGAUGGAUUUTT against Plpp3  inactive
19       GGAGAGUACAGACACUGAGTT against Masp2  inactive
20      GGAAAUCUACAUCAUGGCUTT against Ift140    active
21       CGAGUAUUUUGAAAUCCUGTT against Cdcp3  inactive
22       GGAUCCUCUGGUAAAGGGATT against Gng11  inactive
23     GUAUCCUUCACAACUGUCUTT against Olfr786  inactive
24     CCAGUUAAAAAGGUUCCAATT against Ccdc169  inactive
